# assay-text: Toxicity in po dosed mouse assessed as mortality after 7 days
# experimental-parameters: in vivo
LD50 at 168 h values for the compounds below.
measurement-label: LD50 at 168 h

test-smiles	measurement-label	result
CC(C)(C)/N=C(\NC#N)Nc1ccc(Cl)nc1Cl	LD50 at 168 h	> 1000 mg/kg
N#CN/C(=N\CCc1ccccc1)Nc1cccnc1	LD50 at 168 h	> 1000 mg/kg
CC(C)(C)CC(C)(C)/N=C(\NC#N)Nc1ccncc1	LD50 at 168 h	> 1000 mg/kg
N#C/N=C(/Nc1ccncc1)NC12CC3CC(CC(C3)C1)C2	LD50 at 168 h	> 1000 mg/kg
Cc1cc(C)nc(N/C(=N/C(C)(C)C)NC#N)c1	LD50 at 168 h	> 1000 mg/kg
CCC(C)(C)N/C(=N\c1ncccn1)Nc1cccnc1.Cl	LD50 at 168 h	1000 mg/kg

----------
# assay-text: Toxicity in po dosed mouse assessed as mortality after 7 days
# experimental-parameters: in vivo

molecule	value-comparator	LD50 at 168 h, mg/kg
CC(C)C(/N=C(\NC#N)Nc1ccncc1)C(C)C	=	250
C=C(C)C/N=C(\NC#N)Nc1cccnc1	=	1000
CCC(CC)N/C(=N\O)Nc1cccnc1	>	1000
CC(C)(C)N/C(=N\C#N)Nc1ccc(O)cc1	>	1000
CC(C)CC(C)(C)/N=C(\NC#N)Nc1ccncc1	>	1000
CN1CCN(/C(=N/C#N)NC(C)(C)C)CC1	>	1000
N#CN/C(=N\C1CCCC1)Nc1cccnc1	=	1000
CCC(C)(C)N/C(=N\C=O)Nc1cccnc1	=	600
N#C/N=C(/Nc1cccnc1)NC12CC3CC(CC(C3)C1)C2	>	1000
CC(=O)Nc1ccc(N/C(=N/C#N)NC(C)(C)C)cc1	>	1000
COc1ccc(N/C(=N/C(C)(C)C)NC#N)cn1	=	400
CCCCC(CC)C/N=C(\NC#N)Nc1cccnc1 (stereo not drawn)	>	1000
CC(/N=C(\NC#N)Nc1ccncc1)c1ccccc1 (stereo not drawn)	=	600

----------
# assay-text: Toxicity in po dosed mouse assessed as mortality after 7 days
# experimental-parameters: in vivo

test-smiles	LD50 at 168 h
CCC(CC)(CC)/N=C(\NC#N)Nc1cccnc1	> 1000 mg/kg
COc1ccc(/N=C(\NC#N)NC(C)(C)C)c(OC)n1	> 1000 mg/kg
CC(C)(C)C(C)(C)/N=C(\NC#N)Nc1cccnc1	> 1000 mg/kg

Measured values drawn from ChEMBL document CHEMBL3272224 for this set.
